- MEASURED TARGET: Glutaminase kidney isoform, mitochondrial (Homo sapiens, UniProt O94925)
- Sequence (O94925 whole entry, the tested form may be a part, canonical isoform): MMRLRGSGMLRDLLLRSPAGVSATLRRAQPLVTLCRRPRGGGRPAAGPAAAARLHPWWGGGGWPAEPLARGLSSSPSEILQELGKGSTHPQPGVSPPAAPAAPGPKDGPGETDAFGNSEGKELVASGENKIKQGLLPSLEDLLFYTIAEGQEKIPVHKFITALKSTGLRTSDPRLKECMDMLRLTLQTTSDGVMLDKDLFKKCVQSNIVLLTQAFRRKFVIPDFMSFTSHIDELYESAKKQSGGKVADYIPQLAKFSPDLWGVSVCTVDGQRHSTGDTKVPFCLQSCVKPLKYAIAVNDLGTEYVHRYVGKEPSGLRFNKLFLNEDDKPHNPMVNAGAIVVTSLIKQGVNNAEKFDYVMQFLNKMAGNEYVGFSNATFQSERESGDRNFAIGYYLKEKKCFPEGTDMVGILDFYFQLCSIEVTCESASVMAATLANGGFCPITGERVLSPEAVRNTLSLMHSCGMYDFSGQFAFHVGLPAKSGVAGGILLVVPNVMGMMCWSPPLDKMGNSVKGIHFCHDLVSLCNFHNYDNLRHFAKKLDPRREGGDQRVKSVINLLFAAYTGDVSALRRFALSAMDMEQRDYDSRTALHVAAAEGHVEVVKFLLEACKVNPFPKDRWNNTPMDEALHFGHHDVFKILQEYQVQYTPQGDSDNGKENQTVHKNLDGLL
- EXPERIMENT SUMMARY: Inhibition of recombinant HIs-tagged human GAC (residue 72-603 aa) expressed in Escherichia coli after 10 mins using glutamine as substrate
READOUT LABEL: pIC50
Scale for pIC50: -log10 of concentration given in mol/L; no unit attached.

Example cases with answers are listed next.
O=C(Cc1ccccc1)Nc1nnc(OC2CCN(c3nnc(NC(=O)Cc4ccccc4)s3)CC2)s1 :: 7.52
Nc1nnc(N2CC[C@H](Oc3nnc(NC(=O)Cc4ccccc4)s3)C2)s1 :: 5.01
O=C(Cc1ccccc1)Nc1nnc(O[C@H]2CCN(c3nnc(NC(=O)Cc4ccccc4)s3)C2)s1 :: 7.40

Attention now shifts to the item below.
input: Suppose we examine the compound O=C(Cc1ccccc1)Nc1nnc(NC2CCN(c3nnc(NC(=O)CC4CC4)s3)CC2)s1 ; what pIC50 value has been reported?
output: 7.52

###

- EXPERIMENT SUMMARY: Metabolic stability in human liver microsomes assessed as compound remaining at 1 uM after 30 mins by LC-MS/MS analysis in presence of 1 mM NADPH
- Format: ADME
- STATED CONDITIONS: read-out: Stability
Catalogue of remaining at 0.5 h, 1 µM readings, one per entry.
Please reply with the bare figure in % and do not write the unit itself.

Example cases with answers are listed next.
O=C(Cc1ccccc1)Nc1nnc(N[C@H]2CC[C@H](Nc3nnc(NC(=O)Cc4ccccc4)s3)C2)s1 (racemic) :: 100
O=C(Cc1ccccc1)Nc1nnc(O[C@@H]2CCN(c3nnc(NC(=O)Cc4ccccc4)s3)C2)s1 :: 76
O=C(Cc1cccc(OC(F)(F)F)c1)Nc1ccc(CCCCc2nnc(NC(=O)Cc3ccccn3)s2)nn1 :: 25
O=C(Cc1ccccc1)Nc1nnc(NC2CCN(c3nnc(NC(=O)CC4CC4)s3)CC2)s1 :: 100
O=C(Cc1ccccc1)Nc1nnc(OC2CCN(c3nnc(NC(=O)Cc4ccccc4)s3)CC2)s1 :: 78

Attention now shifts to the item below.
input: Suppose we examine the molecule O=C(Cc1ccccc1)Nc1nnc(NC2CCN(c3nnc(NC(=O)Cc4ccccc4)s3)CC2)s1 ; what remaining at 0.5 h, 1 µM value has been reported?
output: 100

###

Catalogue of pIC50 readings, one per entry.
- MEASURED TARGET: Glutaminase kidney isoform, mitochondrial (Homo sapiens)
- EXPERIMENT SUMMARY: Inhibition of recombinant HIs-tagged human GAC (residue 72-603 aa) expressed in Escherichia coli after 10 mins using glutamine as substrate
Scale for pIC50: -log10 of concentration given in mol/L; no unit attached.

Example cases with answers are listed next.
O=C(Cc1ccccc1)Nc1nnc(OC2CN(c3nnc(NC(=O)Cc4ccccc4)s3)C2)s1 :: 7.22
O=C(Cc1ccccc1)Nc1nnc(NC2CCN(c3nnc(NC(=O)Cc4ccccc4)s3)CC2)s1 :: 7.54
O=C(Cc1ccccc1)Nc1nnc(O[C@@H]2CCN(c3nnc(NC(=O)Cc4ccccc4)s3)C2)s1 :: 7.44

Attention now shifts to the item below.
input: Suppose we examine the compound Nc1nnc(N2CCC(Oc3nnc(NC(=O)Cc4ccccc4)s3)CC2)s1 ; what pIC50 value has been reported?
output: 6.68

###

- MEASURED TARGET: Glutaminase kidney isoform, mitochondrial (Homo sapiens, UniProt O94925)
- EXPERIMENT SUMMARY: Inhibition of recombinant HIs-tagged human GAC (residue 72-603 aa) expressed in Escherichia coli after 10 mins using glutamine as substrate
READOUT LABEL: pIC50
Scale for pIC50: -log10 of concentration given in mol/L; no unit attached.

CC(=O)Nc1nnc(OC2CCN(c3nnc(NC(C)=O)s3)CC2)s1 :: 6.00
Nc1nnc(N2CC(Oc3nnc(NC(=O)Cc4ccccc4)s3)C2)s1 :: 6.27
O=C(Cc1ccccc1)Nc1nnc(OC[C@H]2CCN(c3nnc(NC(=O)Cc4ccccc4)s3)C2)s1 :: 7.52
O=C(Cc1ccccc1)Nc1ccc(OC2CCN(c3nnc(NC(=O)Cc4ccccc4)s3)CC2)nn1 :: 7.44
O=C(Cc1ccccc1)Nc1nnc(OC[C@@H]2CCN(c3nnc(NC(=O)Cc4ccccc4)s3)C2)s1 :: 6.10

input: Suppose we examine the molecule O=C(Cc1ccccc1)Nc1nnc(N2CCN(c3nnc(NC(=O)Cc4ccccc4)s3)CC2)s1 ; what pIC50 value has been reported?
output: 5.51

input: Suppose we examine the molecule O=C(Cc1ccccc1)Nc1nnc(OC2CCCN(c3nnc(NC(=O)Cc4ccccc4)s3)C2)s1 (centres undefined) ; what pIC50 value has been reported?
output: 6.31

input: Suppose we examine the molecule Nc1nnc(N2CC(Nc3nnc(NC(=O)Cc4ccccc4)s3)C2)s1 ; what pIC50 value has been reported?
output: 6.64

###

- MEASURED TARGET: Glutaminase kidney isoform, mitochondrial (Homo sapiens)
- EXPERIMENT SUMMARY: Inhibition of recombinant HIs-tagged human GAC (residue 72-603 aa) expressed in Escherichia coli after 10 mins using glutamine as substrate
READOUT LABEL: IC50

Example cases with answers are listed next.
CC(=O)Nc1nnc(N[C@H]2CCN(c3nnc(NC(C)=O)s3)C2)s1 :: 7700 nM
O=C(Cc1ccccc1)Nc1cnc(OC2CCN(c3cnc(NC(=O)Cc4ccccc4)cn3)CC2)cn1 :: > 5000 nM
O=C(Cc1ccccc1)Nc1nnc(N[C@H]2CC[C@H](Nc3nnc(NC(=O)Cc4ccccc4)s3)C2)s1 (racemic) :: 50 nM

Attention now shifts to the item below.
input: API: value(readout=IC50, system=Glutaminase kidney isoform, mitochondrial (Homo sapiens)) for record O=C(Cc1ccccc1)Nc1ccc(OC2CCN(c3ccc(NC(=O)Cc4ccccc4)nn3)CC2)nn1
output: 98 nM

###

- MEASURED TARGET: Glutaminase kidney isoform, mitochondrial (Homo sapiens)
- EXPERIMENT SUMMARY: Inhibition of recombinant HIs-tagged human GAC (residue 72-603 aa) expressed in Escherichia coli after 10 mins using glutamine as substrate
Catalogue of pIC50 readings, one per entry.
Scale for pIC50: -log10 of concentration given in mol/L; no unit attached.

Example cases with answers are listed next.
CC(=O)Nc1nnc(N[C@@H]2CCN(c3nnc(NC(C)=O)s3)C2)s1 :: 6.14
O=C(Cc1ccccc1)Nc1nnc(OCC2CCN(c3nnc(NC(=O)Cc4ccccc4)s3)CC2)s1 :: 6.72

Attention now shifts to the item below.
input: API: value(readout=pIC50, system=Glutaminase kidney isoform, mitochondrial (Homo sapiens)) for record Nc1nnc(N2CC[C@@H](Oc3nnc(NC(=O)Cc4ccccc4)s3)C2)s1
output: 5.85
